- target or system: T1, human GLP-1R (human), P43220
- T1 chain: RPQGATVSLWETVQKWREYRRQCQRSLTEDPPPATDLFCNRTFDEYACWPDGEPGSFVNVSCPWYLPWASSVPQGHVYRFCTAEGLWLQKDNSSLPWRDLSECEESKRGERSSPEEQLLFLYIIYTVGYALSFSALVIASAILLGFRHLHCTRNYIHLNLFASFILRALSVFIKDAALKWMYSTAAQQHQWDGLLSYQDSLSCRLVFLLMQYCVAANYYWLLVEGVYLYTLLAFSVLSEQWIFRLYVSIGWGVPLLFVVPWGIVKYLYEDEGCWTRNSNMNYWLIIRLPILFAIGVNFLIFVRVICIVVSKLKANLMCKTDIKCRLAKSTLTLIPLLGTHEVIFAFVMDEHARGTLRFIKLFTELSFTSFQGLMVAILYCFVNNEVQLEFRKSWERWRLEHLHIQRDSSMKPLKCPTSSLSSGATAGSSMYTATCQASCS
Non-standard residues stand in square brackets, D forms with d. Groups on a side chain read outwards from the residue. Primed or numbered codes have the meaning given here. No end group written: not given here. *: point of attachment. C20 diacid = O=C(O)CCCCCCCCCCCCCCCCCCC(=O)*; Stearoyl = CCCCCCCCCCCCCCCCCC(=O)*; αMeF = C[C@](N)(Cc1ccccc1)C(=O)O; Iva = CC[C@](C)(N)C(=O)O; Aib = CC(C)(N)C(=O)O
assay endpoint: Agonist activity (EC50, M)

These recorded examples may help you get a feel for the data.
binder	Agonist activity (EC50, M)
Y[Aib]EGTVVSLYSK([Gly-Gly-Gly-Gly-Stearoyl])[Aib]LDRQAQ[Aib]EFVK(Ac)WLLAQR (ends and bridges not checked) [Compound 261]	> 1e-06 M
Me-Y[Aib]EGTFISDYSIALDRIAQQN[αMeF]VNWLLAQRPSSGAPPPSR (not fully specified (residue 1, C-terminus); ends and bridges not checked) [Compound 134]	> 1e-06 M

// switching to the query binder
*Q* Returns the measured Agonist activity (EC50, M) for the input binder. Input: Y[Aib]EGTFISDYSK([PEG(2)-C20 diacid])ALDRIAQQNFVNW[Iva]LAQR (ends and bridges not checked) [Compound 387]
*A* > 1e-06 M
